Tested on: MOLT-4 leukemia
Method: NCI-60 one-dose screen, 48 h (100 = growth as untreated, 0 = no growth, -100 = all killed)
Assay context: 10 µM
About 83,000 compounds went through this panel and 20% of them were active in at least one assay; those are over-represented in the sample as a whole.
Under this convention, yes denotes growth strictly below 80% and no denotes growth at or above 80%.

C[C@]12CC[C@@H]3C4=C(CC[C@H]3[C@@H]1CC[C@@H]2O)CC(=O)CC4 | no
CN(Cc1cccnc1)N=O | no

# ---- query molecule ----
[ask] growth strictly < 80% for this molecule? N#CC1=C(N)Oc2cc3c(cc2C1c1cccs1)OCO3 (stereo unspecified)
[reply] yes
